- Test system: MRSA 1003
- Assay type: cell-based, Staphylococcus aureus
Bridge positions count the residues as written; N and C are the ends. Square brackets hold non-standard residues; d marks the D form. Peptide text beside a SMILES is read from it. ξ: configuration not given here. dNMeF = CN[C@H](Cc1ccccc1)C(=O)O; Ile(3ξ) = CCC(C)[C@H](N)C(=O)O
ASSAY METRIC: MIC (µg/mL)

[[record]]
compound = "CC[C@@H](C)[C@@H](NC(=O)[C@@H](CCCNC(=N)N)NC(=O)[C@H](CCCNC(=N)N)NC(=O)[C@@H](NC(=O)[C@@H](Cc1ccccc1)NC)[C@@H](C)CC)C(=O)N[C@H](C(=O)N[C@@H](CO)C(=O)N[C@H]1C(=O)N[C@@H](CCCNC(=N)N)C(=O)N[C@@H](CC(C)C)C(=O)N[C@@H]([C@@H](C)CC)C(=O)O[C@H]1C)[C@@H](C)CC [Compound 31, Arg3-D-Arg4-Arg9-Leu10-teixobactin] (H-[dNMeF]IR[dR][dI]IS[dT]RLI; ester 8-C)"
endpoint_result = 2

[[record]]
compound = "CCC(C)[C@@H]1NC(=O)[C@H](CCCNC(=N)N)NC(=O)[C@H](NC(=O)[C@H](CO)NC(=O)[C@@H](NC(=O)[C@H](NC(=O)[C@@H](CCC(N)=O)NC(=O)[C@H](CO)NC(=O)[C@@H](NC(=O)[C@@H](Cc2ccccc2)NC)[C@@H](C)CC)[C@H](C)CC)[C@@H](C)CC)[C@H](C)OC(=O)[C@H]([C@@H](C)CC)NC1=O (stereo partly drawn) [Compound 34, Arg9-Ile10-teixobactin] (H-[dNMeF]IS[dQ][dI]IS[dT]R[Ile(3ξ)]I; ester 8-C)"
endpoint_result = 0.5

[[record]]
compound = "CC[C@@H](C)[C@@H](NC(=O)[C@@H](CCCNC(=N)N)NC(=O)[C@H](CCCNC(=N)N)NC(=O)[C@@H](NC(=O)[C@@H](Cc1ccccc1)NC)[C@@H](C)CC)C(=O)N[C@H](C(=O)N[C@@H](CO)C(=O)N[C@H]1C(=O)N[C@@H](C)C(=O)N[C@@H](CC(C)C)C(=O)N[C@@H]([C@@H](C)CC)C(=O)O[C@H]1C)[C@@H](C)CC [Compound 28, Arg3-D-Arg4-Leu10-teixobactin] (H-[dNMeF]IR[dR][dI]IS[dT]ALI; ester 8-C)"
endpoint_result = 1


###

- ASSAY METHOD TEXT: in vitro
- RUN CONDITIONS: human, A549 lung epithelial cells
ASSAY METRIC: viability at 24 h, 250 µg/mL (%)

[[record]]
compound_smiles = "CC[C@@H](C)[C@@H](NC(=O)[C@@H](CCCNC(=N)N)NC(=O)[C@H](CO)NC(=O)[C@@H](NC(=O)[C@@H](Cc1ccccc1)NC)[C@@H](C)CC)C(=O)N[C@H](C(=O)N[C@@H](CO)C(=O)N[C@H]1C(=O)N[C@@H](C)C(=O)N[C@@H](CC(C)C)C(=O)N[C@@H]([C@@H](C)CC)C(=O)O[C@H]1C)[C@@H](C)CC"
endpoint_result = 80


###

- System: MRSA DR 42412 (sputum)
- ASSAY METHOD TEXT: microbe, parasite or virus in culture
- RUN CONDITIONS: DR 42412 (sputum)
ASSAY METRIC: MBC (µg/mL)

[[record]]
compound_smiles = "CC[C@@H](C)[C@@H](NC(=O)[C@@H](CCC(N)=O)NC(=O)[C@H](CO)NC(=O)[C@@H](NC(=O)[C@@H](Cc1ccccc1)NC)[C@@H](C)CC)C(=O)N[C@H](C(=O)N[C@@H](CO)C(=O)N[C@H]1C(=O)N[C@@H](C)C(=O)N[C@@H](CC(C)C)C(=O)N[C@@H]([C@@H](C)CC)C(=O)O[C@H]1C)[C@@H](C)CC"
assay_metric = "MBC"
modifier_sign = "≤"
endpoint_result = 0.0625

[[record]]
compound_smiles = "CC[C@@H](C)[C@@H](NC(=O)[C@@H](CCC(N)=O)NC(=O)[C@H](CO)NC(=O)[C@@H](NC(=O)[C@@H](Cc1ccccc1)NC)[C@@H](C)CC)C(=O)N[C@H](C(=O)N[C@@H](CO)C(=O)N[C@H]1C(=O)N[C@@H](C)C(=O)N[C@@H]([C@@H](C)CC)C(=O)N[C@@H]([C@@H](C)CC)C(=O)O[C@H]1C)[C@@H](C)CC"
assay_metric = "MBC"
modifier_sign = "≤"
endpoint_result = 0.0625

[[record]]
compound_smiles = "CC[C@@H](C)[C@@H](NC(=O)[C@@H](CCC(N)=O)NC(=O)[C@H](CO)NC(=O)[C@@H](NC(=O)[C@@H](Cc1ccccc1)NC)[C@@H](C)CC)C(=O)N[C@H](C(=O)N[C@@H](CO)C(=O)N[C@H]1C(=O)N[C@@H](C)C(=O)N[C@@H](C(C)C)C(=O)N[C@@H]([C@@H](C)CC)C(=O)O[C@H]1C)[C@@H](C)CC"
assay_metric = "MBC"
modifier_sign = "="
endpoint_result = 4

[[record]]
compound_smiles = "CC[C@@H](C)[C@@H](NC(=O)[C@@H](CCC(N)=O)NC(=O)[C@H](CO)NC(=O)[C@@H](NC(=O)[C@@H](Cc1ccccc1)NC)[C@@H](C)CC)C(=O)N[C@H](C(=O)N[C@@H](CO)C(=O)N[C@H]1C(=O)N[C@@H](C)C(=O)N[C@@H](C)C(=O)N[C@@H]([C@@H](C)CC)C(=O)O[C@H]1C)[C@@H](C)CC"
assay_metric = "MBC"
modifier_sign = "="
endpoint_result = 4


###

- Test system: Staphylococcus aureus ATCC 29213
- ASSAY METHOD TEXT: microbe, parasite or virus in culture
- RUN CONDITIONS: ATCC 29213
- Protocol: For MIC testing all peptides were dissolved in DMSO (according to the method of L. L. Ling, et al., Nature 2015, 517, 455-459). Bacteria were grown on Mueller Hinton broth (oxoid). All incubations were at 37° C. Dilutions were carried out using Mueller Hinton. 100 μl of autoclaved Mueller Hinton broth was added to wells 2-12 on a 96-well plate. […] The MIC was determined to be the lowest concentration at which there was no growth visible.
Bridge positions count the residues as written; N and C are the ends. Square brackets hold non-standard residues; d marks the D form. Peptide text beside a SMILES is read from it. dNMeF = CN[C@H](Cc1ccccc1)C(=O)O
Some compounds, each annotated with its measured MIC.
ASSAY METRIC: MIC

[[record]]
compound = "CC[C@@H](C)[C@@H](NC(=O)[C@@H](CCCNC(=N)N)NC(=O)[C@H](CCCNC(=N)N)NC(=O)[C@@H](NC(=O)[C@@H](Cc1ccccc1)NC)[C@@H](C)CC)C(=O)N[C@H](C(=O)N[C@@H](CO)C(=O)N[C@H]1C(=O)N[C@@H](C)C(=O)N[C@@H](CC(C)C)C(=O)N[C@@H]([C@@H](C)CC)C(=O)O[C@H]1C)[C@@H](C)CC [Compound 28, Arg3-D-Arg4-Leu10-teixobactin] (H-[dNMeF]IR[dR][dI]IS[dT]ALI; ester 8-C)"
endpoint_result = "0.25 µg/mL"

[[record]]
compound = "CC[C@@H](C)[C@@H](NC(=O)[C@@H](CCC(N)=O)NC(=O)[C@H](CO)NC(=O)[C@@H](NC(=O)[C@@H](Cc1ccccc1)NC)[C@@H](C)CC)C(=O)N[C@H](C(=O)N[C@@H](CO)C(=O)N[C@H]1C(=O)N[C@@H](C)C(=O)N[C@@H]([C@@H](C)CC)C(=O)N[C@@H]([C@@H](C)CC)C(=O)O[C@H]1C)[C@@H](C)CC"
endpoint_result = "≤0.0625 µg/mL"

[[record]]
compound = "CC[C@@H](C)[C@@H](NC(=O)[C@@H](CCC(N)=O)NC(=O)[C@H](CO)NC(=O)[C@@H](NC(=O)[C@@H](Cc1ccccc1)NC)[C@@H](C)CC)C(=O)N[C@H](C(=O)N[C@@H](CO)C(=O)N[C@H]1C(=O)N[C@@H](CCCNC(=N)N)C(=O)N[C@@H](CC(C)C)C(=O)N[C@@H]([C@@H](C)CC)C(=O)O[C@H]1C)[C@@H](C)CC [Compound 27, Arg9-Leu10-teixobactin] (H-[dNMeF]IS[dQ][dI]IS[dT]RLI; ester 8-C)"
endpoint_result = "0.5 µg/mL"


###

- Test system: Staphylococcus saprophyticus ATCC 49453
- Assay type: cell-based
- RUN CONDITIONS: ATCC 49453
- Method: Bacteria were grown on Mueller Hinton broth (oxoid). All incubations were at 37° C. Dilutions were carried out using Mueller Hinton. […] This process was repeated up to well 11. […] This was repeated three times. […] Results are tabulated in the Examples.
Bridge positions count the residues as written; N and C are the ends. Square brackets hold non-standard residues; d marks the D form. Peptide text beside a SMILES is read from it. ξ: configuration not given here. dNMeF = CN[C@H](Cc1ccccc1)C(=O)O; Ile(3ξ) = CCC(C)[C@H](N)C(=O)O
ASSAY METRIC: MIC

[[record]]
compound = "CC[C@@H](C)[C@@H](NC(=O)[C@@H](CCCNC(=N)N)NC(=O)[C@H](CCCNC(=N)N)NC(=O)[C@@H](NC(=O)[C@@H](Cc1ccccc1)NC)[C@@H](C)CC)C(=O)N[C@H](C(=O)N[C@@H](CO)C(=O)N[C@H]1C(=O)N[C@@H](C)C(=O)N[C@@H](CC(C)C)C(=O)N[C@@H]([C@@H](C)CC)C(=O)O[C@H]1C)[C@@H](C)CC [Compound 28, Arg3-D-Arg4-Leu10-teixobactin] (H-[dNMeF]IR[dR][dI]IS[dT]ALI; ester 8-C)"
assay_metric = "MIC"
endpoint_result = "<0.0625 µg/mL"

[[record]]
compound = "CCC(C)[C@@H]1NC(=O)[C@H](CCCNC(=N)N)NC(=O)[C@H](NC(=O)[C@H](CO)NC(=O)[C@@H](NC(=O)[C@H](NC(=O)[C@@H](CCC(N)=O)NC(=O)[C@H](CO)NC(=O)[C@@H](NC(=O)[C@@H](Cc2ccccc2)NC)[C@@H](C)CC)[C@H](C)CC)[C@@H](C)CC)[C@H](C)OC(=O)[C@H]([C@@H](C)CC)NC1=O (stereo partly drawn) [Compound 34, Arg9-Ile10-teixobactin] (H-[dNMeF]IS[dQ][dI]IS[dT]R[Ile(3ξ)]I; ester 8-C)"
assay_metric = "MIC"
endpoint_result = "<0.0625 µg/mL"

[[record]]
compound = "CC[C@@H](C)[C@@H](NC(=O)[C@@H](CCC(N)=O)NC(=O)[C@H](CCCNC(=N)N)NC(=O)[C@@H](NC(=O)[C@@H](Cc1ccccc1)NC)[C@@H](C)CC)C(=O)N[C@H](C(=O)N[C@@H](CO)C(=O)N[C@H]1C(=O)N[C@@H](C)C(=O)N[C@@H](CC(C)C)C(=O)N[C@@H]([C@@H](C)CC)C(=O)O[C@H]1C)[C@@H](C)CC [Compound 25, Arg3-Leu10-teixobactin] (H-[dNMeF]IR[dQ][dI]IS[dT]ALI; ester 8-C)"
assay_metric = "MIC"
endpoint_result = "<0.0625 µg/mL"

